- ASSAY TARGET: APOL1 G1 (Homo sapiens, UniProt O14791, I384M/S342G)
- Sequence (O14791 28-398 S342G/I384M): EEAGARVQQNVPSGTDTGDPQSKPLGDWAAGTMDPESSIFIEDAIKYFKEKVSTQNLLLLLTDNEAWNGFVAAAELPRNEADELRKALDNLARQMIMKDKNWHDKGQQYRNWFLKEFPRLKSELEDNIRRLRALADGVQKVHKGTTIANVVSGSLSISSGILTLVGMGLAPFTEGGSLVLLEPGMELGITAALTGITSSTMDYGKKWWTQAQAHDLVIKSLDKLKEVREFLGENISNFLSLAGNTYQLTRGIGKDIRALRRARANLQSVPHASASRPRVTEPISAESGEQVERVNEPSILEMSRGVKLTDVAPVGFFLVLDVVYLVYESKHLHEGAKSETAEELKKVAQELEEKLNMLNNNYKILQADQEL
- ASSAY NOTES: MultiTox-Fluor Multiplex Cytotoxicity Assay, tet-inducible APOL1 G1 T-REx-HEK293 cells
- Format: cell-based
- Design: expressed in transfected cells; host or cells: T-REx HEK293, clone G1 DC3.25 (pAAVS1-Puro-APOL1 G1)
- STATED CONDITIONS: Multi-Tox Assay; APOL1 variant not given

COMPOUND: Cc1nn(CCO)cc1[C@@H]1C[C@]2(C[C@H](C)N1)OCCc1cc(Cl)sc12 (racemic)
Multi-Tox Assay Max Activity (%): 90.4%
//
COMPOUND: C[C@H]1C[C@@]2(C[C@@H](c3cn(Cc4cccc(O)c4)nn3)N1)OCC(F)(F)c1cc(Cl)sc12
Multi-Tox Assay Max Activity (%): 95.0%
//
COMPOUND: CCc1cc2c(s1)CCO[C@@]21C[C@@H](c2cnn(CCS(C)(=O)=O)c2)N[C@@H](C)C1
Multi-Tox Assay Max Activity (%): 100.0%
//
COMPOUND: CC(C)N1CC(Cn2cc([C@@H]3C[C@]4(C[C@H](C)N3)OCC(F)(F)c3cc(Cl)sc34)nn2)CC1=O (stereo partly shown)
Multi-Tox Assay Max Activity (%): 98.0%
